# Test system: Plasmodium berghei
# protocolNotes: Screen against P. berghei liver stage (PbLuc), transformed with Luciferase, at 10uM
# Assay type: functional, HepG2
# studyConditions: tested at 10 uM
Hit rate of the full screen: of about 69,000 compounds, about 8,600 (12%) showed an effect of 50% or more. The full list was thinned out, with strong results kept by preference.
Parameter: INHIBITION. Scope: all listed entries.
Express it in %; write the number only.

Answered examples (8):
Cc1occc1C(=O)NCC(=O)NCCOc1ccc2c(c1)CCC2 = 42.3
CC(c1ccccc1Cl)N(C(=O)CSCC(N)=O)C1CC1 (stereo not given) = 30.4
CNC(=O)CNCc1c[nH]nc1-c1cc2ccccc2o1 = 1.51
Cc1ccc(C(=O)N(C)CCNS(C)(=O)=O)cc1Br = 23.9
CN1CCN(c2ccc(Br)cc2NC(=O)c2ccco2)CC1 = 46.3
Cc1ccc(C(=O)N(CC(=O)O)CC(C)C)cc1F = 39.7
CN(CC(F)(F)F)C(=O)c1ccc(F)c(NS(C)(=O)=O)c1 = -43.5
COCCC1(CO)CCCN(C(=O)c2cc(=O)[nH]c(=O)[nH]2)C1 (stereo not given) = 0.33

Per the reported Plasmodium berghei data, "COc1cc(C)c(NC(=O)CCn2cccc2)cc1OC" has INHIBITION of -23.2

I looked up "O=C(Nc1nccs1)NC1CCN(CC2CCCC2)CC1" and its INHIBITION for Plasmodium berghei was 21.45

Param item: CC(c1ccccc1F)N(C(=O)CSCC(N)=O)C1CC1 (stereo not given) ; param system: Plasmodium berghei; output INHIBITION: 35.9

The reported Plasmodium berghei INHIBITION of "O=C(Cc1ccncc1)N1C[C@H]2CC[C@@H](C1)N(Cc1ccccc1)C2=O" is 63.7

Response field INHIBITION (Plasmodium berghei) for item CC(Cc1cccc(F)c1)NCc1cnc(N2CCN(C)CC2)nc1 (stereo not given) : 23.2

Test item "O=S(=O)(C1CC1)N1CC[C@H](OCC2CC2)[C@@H]1Cc1cccnc1" ; Plasmodium berghei; reported INHIBITION was -4.02

Measured INHIBITION for this entry "CNc1nc2c(c(C(=O)N3CCCC3)n1)CN(C(=O)CCSC)CC2" on Plasmodium berghei: -36.6

Bench note, Plasmodium berghei: entry "O=C(NCCc1cnccn1)c1ccc(S(=O)(=O)NC2CCC2)cc1" , its INHIBITION = 40.3

# lookup: CC(c1ccccc1F)N(CC(N)=O)C1CC1 (stereo not given) on Plasmodium berghei, INHIBITION = 72.1

Record O=C(NCC1(O)CCC1)NC(c1cc(F)ccc1F)C1CC1 (stereo not given) has Plasmodium berghei INHIBITION equal to 31.2

Entry "Cc1sc(C(=O)N(C)S(C)(=O)=O)cc1-c1ccc(F)cc1" , tested on Plasmodium berghei, has a reported INHIBITION of 13.3

The molecule "Cc1cc(Br)ccc1C(=O)N(C)CCNS(C)(=O)=O" on Plasmodium berghei: INHIBITION was 35.9

INHIBITION on Plasmodium berghei for "CN(C)CCN(Cc1cccc(F)c1)C(=O)c1ccc2nccn2c1" is 2.91

Reading of INHIBITION for "O=C(c1ccco1)N1C[C@H]2CCCN(Cc3ccoc3)[C@H]2C1" with Plasmodium berghei: 44.3

Considering "O=C(Cc1cccnc1)N1C[C@H]2CC[C@@H](C1)N(Cc1ccccc1)C2=O" , its INHIBITION with Plasmodium berghei was recorded as 40.4

Record for Cc1cn2nc(N3CCCC3Cn3cccn3)sc2n1 (stereo not given) under target or system Plasmodium berghei: INHIBITION reported as -12.1

# lookup: "CO[C@@H]1CC[C@H]2[C@H]1OCCN2CC1CC1" on Plasmodium berghei, INHIBITION = 23.6

// INHIBITION (Plasmodium berghei) for "COc1cc(C)c(NC(=O)NCCn2cccc2)cc1OC" = 52.2

GET /values?item= "Cc1ccc(C(=O)N2CCCS2(=O)=O)cc1Cl" &system= Plasmodium berghei returns INHIBITION: 21.1

Item "Cc1ccc(C(=O)N(C)S(C)(=O)=O)cc1Cl" was tested on Plasmodium berghei; the reported INHIBITION is 61.9

Summary: "CCO[C@@H]1CC[C@H]2[C@H]1OCCN2CC1CCOCC1" , Plasmodium berghei, INHIBITION = 27.6

Tested on Plasmodium berghei: "Cc1occc1C(=O)NCC(=O)N(C)CCCOc1ccc(F)cc1" . Observed INHIBITION: 26.7

Note to self: INHIBITION of "COc1ccc(OC)c(NC(=O)CSc2ccc3nncn3n2)c1" with Plasmodium berghei was 7.25

Reading of INHIBITION for Cn1cc(CN2CCOCC3(C2)CN(c2ccccc2)C(=O)CO3)cn1 (stereo not given) with Plasmodium berghei: 17.1
